- targetSystem: MC3 (Homo sapiens)
- Sequence (P41968 whole entry): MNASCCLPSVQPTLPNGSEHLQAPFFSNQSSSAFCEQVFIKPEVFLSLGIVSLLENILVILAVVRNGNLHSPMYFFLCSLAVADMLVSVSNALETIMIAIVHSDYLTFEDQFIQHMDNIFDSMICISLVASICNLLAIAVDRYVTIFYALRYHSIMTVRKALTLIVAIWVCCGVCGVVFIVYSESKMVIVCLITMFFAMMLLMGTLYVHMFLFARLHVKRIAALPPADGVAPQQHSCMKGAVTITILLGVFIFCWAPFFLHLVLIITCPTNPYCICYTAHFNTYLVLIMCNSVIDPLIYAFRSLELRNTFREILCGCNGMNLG
- testDetails: Affinity for the MC3-receptors, binding assay using I125-NDP-αMSH as ligand
measureName: Ki (µM)

(A) N=C(NCCc1ccccc1)NN=CC=Cc1ccccc1 [Compound 33]
(B) N=C(NCCc1ccccc1)NN=Cc1ccccc1Br [Compound 27]
Query :: Between item A and item B , which reported Ki is smaller? # answer = label of selected item
Result :: A

* * *

measureName: melting point

Please review the entries below; each comes with its answer.
>>> resultvalue("N=C(N)N(Cc1cccc2ccccc12)N=Cc1c[nH]c2ccccc12")
"213 to 215 °C"
>>> resultvalue("COc1ccc(C=NNC(=N)NCCc2ccccc2)cc1")
"126 to 128 °C"
>>> resultvalue("COc1ccc(C=NNC(=N)NN=Cc2ccc(OC)c(OC)c2Cl)c(Cl)c1OC")
"228 to 230 °C"
>>> resultvalue("N=C(NCCc1ccccc1)NN=Cc1ccc([N+](=O)[O-])cc1")
"241 to 243 °C"
>>> resultvalue("N=C(NN=Cc1cc([N+](=O)[O-])ccc1F)Nc1ccccc1")
"191 to 193 °C"

Query :: State its melting point: N=C(NCCc1ccccc1)NN=Cc1ccccc1Br
Result :: 154 to 155 °C

Query :: State its melting point: N=C(NCCc1ccccc1)NN=Cc1ccc2ccccc2c1
Result :: 244 to 246 °C

Query :: State its melting point: N=C(NN=Cc1c[nH]c2ccccc12)NN=Cc1c[nH]c2ccccc12
Result :: 296 to 298 °C

* * *

Below, each entry is listed alongside its reported melting point.

Please review the entries below; each comes with its answer.
>>> resultvalue("N=C(NN=Cc1cccc2ccccc12)NN=Cc1cccc2ccccc12 [Compound 30]")
"253 to 255 °C"
>>> resultvalue("N=C(NCc1cccc2ccccc12)NN=Cc1ccncc1 [Compound 11]")
"260 to 262 °C"
>>> resultvalue("N=C(NCc1ccccc1)NN=Cc1ccc([N+](=O)[O-])cc1 [Compound 24]")
"239 to 241 °C"
>>> resultvalue("N=C(NCCc1ccccc1)NN=CC=Cc1ccccc1 [Compound 33]")
"175 to 177 °C"
>>> resultvalue("N=C(NCc1ccccc1)NN=Cc1cccn1-c1ccc(Cl)cc1 [Compound 29]")
"190 to 192 °C"
>>> resultvalue("COc1ccc(C=NNC(=N)Nc2ccccc2)c(Cl)c1OC [Compound 16]")
"179 to 181 °C"
>>> resultvalue("N=C(NN=Cc1ccccc1Br)Nc1ccccc1 [Compound 28]")
"149 to 152 °C"
>>> resultvalue("COc1ccc(C=NNC(=Nc2ccccc2)NO)c(Cl)c1OC [Compound 2]")
"167 to 169 °C"
>>> resultvalue("N=C(NCCc1ccccc1)NN=Cc1c[nH]c2ccccc12 [Compound 12]")
"207 to 209 °C"

Proceed to the following item.
Query :: State its melting point: N=C(NCc1ccccc1)NN=Cc1ccc(O)cc1 [Compound 18]
Result :: 192 to 194 °C

* * *

- targetSystem: MC5-receptors (Homo sapiens, UniProt P33032)
- Sequence (P33032 whole entry): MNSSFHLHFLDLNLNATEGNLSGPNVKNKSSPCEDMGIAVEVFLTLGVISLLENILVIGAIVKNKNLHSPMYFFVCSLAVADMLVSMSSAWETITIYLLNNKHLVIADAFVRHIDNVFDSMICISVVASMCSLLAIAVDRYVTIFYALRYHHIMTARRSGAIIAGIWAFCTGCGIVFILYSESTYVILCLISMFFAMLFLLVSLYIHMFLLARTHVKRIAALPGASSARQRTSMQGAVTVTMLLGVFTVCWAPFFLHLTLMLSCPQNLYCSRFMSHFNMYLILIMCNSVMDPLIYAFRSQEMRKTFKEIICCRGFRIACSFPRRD
- testDetails: Affinity for the MC5-receptors, binding assay using I125-NDP-αMSH as ligand
- Protocol: Test 2. Affinity for the MC3-receptors, the MC4-receptors and the MC5-receptors The binding assays were carried out essentially as described by Szardenings et al, J Biol Chem 1997; 272; 27943–27948 and Schiöth et al, FEBS Lett 1997; 410; 223–228 using I125-NDP-αMSH as ligand.
measureName: Ki (µM)

>>> resultvalue("N=C(NCCc1ccccc1)NN=CC=Cc1ccccc1")
8.23

(1) N=C(NCCc1ccccc1)NN=Cc1ccccc1Br
(2) N=C(NCc1ccccc1)NN=Cc1cccn1-c1ccc(Cl)cc1
Query :: Between item 1 and item 2 , which reported Ki is smaller? # answer = label of selected item
Result :: 2
